EXPERIMENTAL_TARGET: OX2 (Homo sapiens)
Construct: expressed in transfected cells; host or cells: CHO (CHO-OX2, kept under selection antibiotic)
Sequence (O43614 whole entry): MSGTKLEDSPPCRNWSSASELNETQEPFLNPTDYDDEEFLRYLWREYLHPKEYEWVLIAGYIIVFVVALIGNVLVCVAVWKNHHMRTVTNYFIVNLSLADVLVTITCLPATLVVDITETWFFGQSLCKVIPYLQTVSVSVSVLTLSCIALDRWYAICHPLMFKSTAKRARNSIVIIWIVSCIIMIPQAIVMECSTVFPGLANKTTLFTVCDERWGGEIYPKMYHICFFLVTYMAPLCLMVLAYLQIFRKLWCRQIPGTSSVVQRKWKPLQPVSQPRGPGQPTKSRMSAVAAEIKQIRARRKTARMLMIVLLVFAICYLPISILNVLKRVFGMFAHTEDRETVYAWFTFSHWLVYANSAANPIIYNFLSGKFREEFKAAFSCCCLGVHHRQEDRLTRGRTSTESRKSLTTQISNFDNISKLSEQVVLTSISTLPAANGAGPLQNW
METHOD_DESCRIPTION: Orexin receptor cell-based functional assay, [Ca2+]i by FLIPR, CHO-OX2 cells
CONDITION_NOTES: [Ca2+]i by FLIPR, antagonist dose-range 0.1 nM-10 μM, EC90 of OXA, read-out: OX2
The following compounds are shown together with reported IC50 values.

[
  {
    "COMPOUND": "Cc1cc(-n2nccn2)c(C(=O)N2CCC[C@@H](C)[C@H]2CNc2ccc(C(F)(F)F)cn2)cc1F",
    "UNITS": "µM",
    "REL": ">",
    "IC50": 5
  },
  {
    "COMPOUND": "Cc1ccc(-n2nccn2)c(C(=O)N2CCC[C@@H](C)[C@H]2CNc2ncc(Cl)cc2F)n1",
    "UNITS": "µM",
    "REL": ">",
    "IC50": 5
  },
  {
    "COMPOUND": "Cc1ccc(-c2cnn(C)c2)c(C(=O)N2CC3CCCC3C2CNc2nc3cc(Cl)ccc3o2)c1 (stereo not drawn)",
    "UNITS": "µM",
    "REL": "=",
    "IC50": 7.8
  },
  {
    "COMPOUND": "C[C@@H]1CCCN(C(=O)c2ccc(F)c(F)c2-n2nccn2)[C@@H]1CNc1ncc(C(F)(F)F)cn1",
    "UNITS": "µM",
    "REL": "=",
    "IC50": 4.1
  },
  {
    "COMPOUND": "Cc1c(F)ccc(C(=O)N2CCC[C@@H](C)[C@H]2CNc2ccc(C(F)(F)F)cn2)c1-c1ncccn1",
    "UNITS": "µM",
    "REL": "=",
    "IC50": 4.2
  },
  {
    "COMPOUND": "Cc1ccc(-n2nccn2)c(C(=O)N2CC3CCCC3C2CNc2nc3cc(Cl)ccc3o2)c1 (stereo not drawn)",
    "UNITS": "µM",
    "REL": "=",
    "IC50": 3.36
  },
  {
    "COMPOUND": "Cc1ccc(C(=O)N2CCC[C@@H](C)[C@H]2CNc2ccc(C(F)(F)F)cn2)c(-n2nccn2)c1F",
    "UNITS": "µM",
    "REL": "=",
    "IC50": 3.9
  },
  {
    "COMPOUND": "C[C@@H]1CCCN(C(=O)c2cc(F)cc(F)c2-n2nccn2)[C@@H]1CNc1ccc(C(F)(F)F)cn1",
    "UNITS": "µM",
    "REL": ">",
    "IC50": 5
  },
  {
    "COMPOUND": "Cc1cccc(-n2nccn2)c1C(=O)N1CCC[C@@H](C)[C@H]1CNc1ncc(C(F)(F)F)cn1",
    "UNITS": "µM",
    "REL": ">",
    "IC50": 5
  },
  {
    "COMPOUND": "Cc1c(F)ccc(-c2ncccn2)c1C(=O)N1CCC[C@@H](C)[C@H]1CNc1ccc(C(F)(F)F)cn1",
    "UNITS": "µM",
    "REL": ">",
    "IC50": 5
  },
  {
    "COMPOUND": "Cc1c(F)ccc(-c2ncccn2)c1C(=O)N1CCC[C@@H](C)[C@H]1CNc1ncc(C(F)(F)F)cn1",
    "UNITS": "µM",
    "REL": ">",
    "IC50": 5
  },
  {
    "COMPOUND": "Cc1ccc(F)c(C(=O)N2CCC[C@@H](C)[C@H]2CNc2ncc(C(F)(F)F)cn2)c1-n1nccn1",
    "UNITS": "µM",
    "REL": ">",
    "IC50": 5
  },
  {
    "COMPOUND": "Cc1ccc(F)c(C(=O)N2CCC[C@@H](C)[C@H]2CNc2ncc(C(F)(F)F)cn2)c1-c1ncccn1",
    "UNITS": "µM",
    "REL": "=",
    "IC50": 0.87
  },
  {
    "COMPOUND": "Cc1ccc(C(=O)N2CCC[C@@H](C)[C@H]2CNc2ncc(C(F)(F)F)cn2)c(-n2nccn2)c1F",
    "UNITS": "µM",
    "REL": ">",
    "IC50": 5
  },
  {
    "COMPOUND": "Cc1ccc(-n2cnc(C(F)(F)F)n2)c(C(=O)N2CC3CCCC3C2CNc2nc3cc(Cl)ccc3o2)c1 (stereo not drawn)",
    "UNITS": "µM",
    "REL": "=",
    "IC50": 3.9
  }
]

---

EXPERIMENTAL_TARGET: OX1 (Homo sapiens, UniProt O43613)
Construct: expressed in transfected cells; host or cells: CHO (CHO-OX1, kept under selection antibiotic)
Sequence (O43613 whole entry): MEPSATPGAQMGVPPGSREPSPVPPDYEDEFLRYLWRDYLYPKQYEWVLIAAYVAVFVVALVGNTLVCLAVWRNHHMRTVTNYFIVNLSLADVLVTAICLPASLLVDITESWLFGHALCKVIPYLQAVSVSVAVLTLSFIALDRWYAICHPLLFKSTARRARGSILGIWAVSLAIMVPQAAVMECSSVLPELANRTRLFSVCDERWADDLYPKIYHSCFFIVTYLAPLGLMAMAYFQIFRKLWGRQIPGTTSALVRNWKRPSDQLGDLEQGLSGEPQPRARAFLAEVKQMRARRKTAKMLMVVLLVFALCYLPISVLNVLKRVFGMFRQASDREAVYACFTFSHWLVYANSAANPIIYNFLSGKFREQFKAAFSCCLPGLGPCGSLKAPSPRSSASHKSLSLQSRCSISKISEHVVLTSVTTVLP
METHOD_DESCRIPTION: Orexin receptor cell-based functional assay, [Ca2+]i by FLIPR, CHO-OX1 cells
CONDITION_NOTES: CHO-OX1 cells, [Ca2+]i by FLIPR, antagonist dose-range 0.1 nM-10 μM, EC90 of OXA; read-out: OX1
The following compounds are shown together with reported IC50 values.

[
  {
    "STRUCTURE_SMILES": "C[C@@H]1CCCN(C(=O)c2cc(F)c(F)cc2-n2nccn2)[C@@H]1CNc1ncc(C(F)(F)F)cn1",
    "IC50 [nM]": 20
  },
  {
    "STRUCTURE_SMILES": "Cc1ccc(-c2ccnc(C)c2)c(C(=O)N2CCC[C@@H](C)[C@H]2CNc2ccc(F)cn2)c1",
    "IC50 [nM]": 670
  },
  {
    "STRUCTURE_SMILES": "C[C@@H]1CCCN(C(=O)c2ccc(F)cc2-n2nccn2)[C@@H]1CNc1ncc(C(F)(F)F)cn1",
    "IC50 [nM]": 58
  },
  {
    "STRUCTURE_SMILES": "C[C@@H]1CCCN(C(=O)c2ccccc2-n2nccn2)[C@@H]1CNc1nc2ccccc2o1",
    "IC50 [nM]": 130
  }
]

---

The following compounds are shown together with reported pIC50 values.
EXPERIMENTAL_TARGET: OX1 (Homo sapiens)
Construct: expressed in transfected cells; host or cells: CHO (CHO-OX1, kept under selection antibiotic)
METHOD_DESCRIPTION: Orexin receptor cell-based functional assay, [Ca2+]i by FLIPR, CHO-OX1 cells
CONDITION_NOTES: CHO-OX1 cells, [Ca2+]i by FLIPR, antagonist dose-range 0.1 nM-10 μM, EC90 of OXA; read-out: OX1
pIC50: −log10 of the molar value.

[
  {
    "COMPOUND": "Cc1ccc(-c2ncccn2)c(C(=O)N2CCC[C@@H](C)[C@H]2CNc2ncc(C(F)(F)F)cn2)c1",
    "REL": "=",
    "pIC50": 8.30
  },
  {
    "COMPOUND": "Cc1ccc(-c2ccccn2)c(C(=O)N2CCC[C@@H](C)[C@H]2CNc2nc3cc(Cl)ccc3o2)n1",
    "REL": "=",
    "pIC50": 7.82
  },
  {
    "COMPOUND": "Cc1nc(C(=O)N2CCCC3CN(c4ccc(C(F)(F)F)cn4)CC32)c(-c2ccc(F)cc2)s1 (stereo not drawn)",
    "REL": "<",
    "pIC50": 6.00
  },
  {
    "COMPOUND": "Cc1ccc(-n2nccn2)c(C(=O)N2CCC[C@@H](C)[C@H]2CNc2ccc(C)nn2)c1",
    "REL": "<",
    "pIC50": 6.00
  },
  {
    "COMPOUND": "Cc1ccc(F)c(C(=O)N2CCC[C@@H](C)[C@H]2CNc2ccc(C(F)(F)F)cn2)c1-c1ncccn1",
    "REL": "=",
    "pIC50": 8.40
  },
  {
    "COMPOUND": "C[C@@H]1CCCN(C(=O)c2cc(F)c(F)cc2-n2nccn2)[C@@H]1CNc1ccc(C(F)(F)F)cn1",
    "REL": "=",
    "pIC50": 7.74
  },
  {
    "COMPOUND": "Cc1nc(C(=O)N2CCC[C@@H](C)[C@H]2CNc2ccc(C(F)(F)F)cn2)c(-c2ccc(F)cc2)s1",
    "REL": "=",
    "pIC50": 8.70
  },
  {
    "COMPOUND": "C[C@@H]1CCCN(C(=O)c2c(F)ccc(F)c2-n2nccn2)[C@@H]1CNc1ncc(C(F)(F)F)cn1",
    "REL": "=",
    "pIC50": 7.82
  },
  {
    "COMPOUND": "Cc1ccc(-c2cnn(C(C)C)c2)c(C(=O)N2CCC[C@@H](C)[C@H]2CNc2ccc(C(F)(F)F)cn2)c1",
    "REL": "=",
    "pIC50": 7.77
  },
  {
    "COMPOUND": "Cc1cc(F)cc(C(=O)N2CCC[C@@H](C)[C@H]2CNc2ccc(C(F)(F)F)cn2)c1-c1ncccn1",
    "REL": "=",
    "pIC50": 9.00
  },
  {
    "COMPOUND": "C[C@@H]1CCCN(C(=O)c2cc(F)ccc2-n2nccn2)[C@@H]1CNc1ccc(Cl)cn1",
    "REL": "=",
    "pIC50": 7.35
  },
  {
    "COMPOUND": "C[C@@H]1CCCN(C(=O)c2cc(Cl)ccc2-n2nccn2)[C@@H]1CNc1ccc(Cl)cn1",
    "REL": "=",
    "pIC50": 7.89
  },
  {
    "COMPOUND": "Cc1ccc(-n2cnc(C)n2)c(C(=O)N2CCC[C@@H](C)[C@H]2CNc2ccc(C(F)(F)F)cn2)c1",
    "REL": "=",
    "pIC50": 7.70
  },
  {
    "COMPOUND": "Cc1nc(C(=O)N2CCCC3CN(c4nc5ccc(Cl)cc5o4)CC32)c(-c2ccc(F)cc2)s1 (stereo not drawn)",
    "REL": "<",
    "pIC50": 6.00
  },
  {
    "COMPOUND": "Cc1ccc(-n2ncc(C)n2)c(C(=O)N2CCC[C@@H](C)[C@H]2CNc2ccc(C(F)(F)F)cn2)c1",
    "REL": "=",
    "pIC50": 8.70
  }
]

The measured values listed here are drawn from patent US9440982B2.
